Tested on: Streptococcus pneumoniae
experiment: In vitro minimum inhibitory concentration against Streptococcus pneumoniae 5737.
Type: functional
assay-readout: MIC

The recorded MIC for CC[C@H]1OC(=O)[C@H](C)[C@@H](O[C@H]2C[C@@](C)(OC)[C@@H](O)[C@H](C)O2)[C@H](C)[C@@H](O[C@@H]2O[C@H](C)C[C@H](N(C)C)[C@H]2O)[C@@](C)(OCC(O)CNCCc2ccccc2)C[C@@H](C)C(=O)[C@H](C)[C@@H](O)[C@]1(C)O (some centres undefined) is 32 µg/mL

The recorded MIC for CC[C@H]1OC(=O)[C@H](C)[C@@H](O[C@H]2C[C@@](C)(OC)[C@@H](O)[C@H](C)O2)[C@H](C)[C@@H](O[C@@H]2O[C@H](C)C[C@H](N(C)C)[C@H]2O)[C@@](C)(OCC(O)CNCc2ccccc2)C[C@@H](C)C(=O)[C@H](C)[C@@H](O)[C@]1(C)O (some centres undefined) is > 128 µg/mL

The recorded MIC for CC[C@H]1OC(=O)[C@H](C)[C@@H](O[C@H]2C[C@@](C)(OC)[C@@H](O)[C@H](C)O2)[C@H](C)[C@@H](O[C@@H]2O[C@H](C)C[C@H](N(C)C)[C@H]2O)[C@@](C)(OCC#N)C[C@@H](C)C(=O)[C@H](C)[C@@H](O)[C@]1(C)O is > 128 µg/mL

The recorded MIC for CC[C@H]1OC(=O)[C@H](C)[C@@H](O[C@H]2C[C@@](C)(OC)[C@@H](O)[C@H](C)O2)[C@H](C)[C@@H](O[C@@H]2O[C@H](C)C[C@H](N(C)C)[C@H]2O)[C@@](C)(OCCO)C[C@@H](C)C(=O)[C@H](C)[C@@H](O)[C@]1(C)O is > 64 µg/mL

The recorded MIC for CC[C@H]1OC(=O)[C@H](C)[C@@H](O[C@H]2C[C@@](C)(OC)[C@@H](O)[C@H](C)O2)[C@H](C)[C@@H](O[C@@H]2O[C@H](C)C[C@H](N(C)C)[C@H]2O)[C@@](C)(OC/C=C/c2ccccc2)C[C@@H](C)C(=O)[C@H](C)[C@@H](O)[C@]1(C)O is 32 µg/mL

The recorded MIC for CC[C@H]1OC(=O)[C@H](C)[C@@H](O[C@H]2C[C@@](C)(OC)[C@@H](O)[C@H](C)O2)[C@H](C)[C@@H](O[C@@H]2O[C@H](C)C[C@H](N(C)C)[C@H]2O)[C@@](C)(OC/C=N/OC)C[C@@H](C)C(=O)[C@H](C)[C@@H](O)[C@]1(C)O is > 128 µg/mL

The recorded MIC for CC[C@H]1OC(=O)[C@H](C)[C@@H](O[C@H]2C[C@@](C)(OC)[C@@H](O)[C@H](C)O2)[C@H](C)[C@@H](O[C@@H]2O[C@H](C)C[C@H](N(C)C)[C@H]2O)[C@@](C)(OC/C=N/NC)C[C@@H](C)C(=O)[C@H](C)[C@@H](O)[C@]1(C)O is > 128 µg/mL

The recorded MIC for CC[C@H]1OC(=O)[C@H](C)[C@@H](O[C@H]2C[C@@](C)(OC)[C@@H](O)[C@H](C)O2)[C@H](C)[C@@H](O[C@@H]2O[C@H](C)C[C@H](N(C)C)[C@H]2O)[C@@](C)(OCCNCCCc2ccccc2)C[C@@H](C)C(=O)[C@H](C)[C@@H](O)[C@]1(C)O is > 128 µg/mL

The recorded MIC for CC[C@H]1OC(=O)[C@H](C)[C@@H](O[C@H]2C[C@@](C)(OC)[C@@H](O)[C@H](C)O2)[C@H](C)[C@@H](O[C@@H]2O[C@H](C)C[C@H](N(C)C)[C@H]2O)[C@@](C)(OCC=O)C[C@@H](C)C(=O)[C@H](C)[C@@H](O)[C@]1(C)O is > 128 µg/mL

* * *

Tested on: Streptococcus pyogenes
experiment: In vitro minimum inhibitory concentration against Streptococcus pyogenes EES61 using standard agar dilution method
Format: functional
For each record, check the reported MIC: if it is below 0.06 µg/mL write Satisfied, else write Not satisfied.

Is it true that MIC reported for CC[C@H]1OC(=O)[C@H](C)[C@@H](O[C@H]2C[C@@](C)(OC)[C@@H](O)[C@H](C)O2)[C@H](C)[C@@H](O[C@@H]2O[C@H](C)C[C@H](N(C)C)[C@H]2O)[C@@](C)(OCC#N)C[C@@H](C)C(=O)[C@H](C)[C@@H](O)[C@]1(C)O is less than 0.06 µg/mL?
Satisfied

Is it true that MIC reported for CC[C@H]1OC(=O)[C@H](C)[C@@H](O[C@H]2C[C@@](C)(OC)[C@@H](O)[C@H](C)O2)[C@H](C)[C@@H](O[C@@H]2O[C@H](C)C[C@H](N(C)C)[C@H]2O)[C@@](C)(OCCO)C[C@@H](C)C(=O)[C@H](C)[C@@H](O)[C@]1(C)O is less than 0.06 µg/mL?
Not satisfied

Is it true that MIC reported for CC[C@H]1OC(=O)[C@H](C)[C@@H](O[C@H]2C[C@@](C)(OC)[C@@H](O)[C@H](C)O2)[C@H](C)[C@@H](O[C@@H]2O[C@H](C)C[C@H](N(C)C)[C@H]2O)[C@@](C)(OCCNCCc2ccccc2)C[C@@H](C)C(=O)[C@H](C)[C@@H](O)[C@]1(C)O is less than 0.06 µg/mL?
Satisfied

Is it true that MIC reported for C#CCO[C@@]1(C)C[C@@H](C)C(=O)[C@H](C)[C@@H](O)[C@](C)(O)[C@@H](CC)OC(=O)[C@H](C)[C@@H](O[C@H]2C[C@@](C)(OC)[C@@H](O)[C@H](C)O2)[C@H](C)[C@H]1O[C@@H]1O[C@H](C)C[C@H](N(C)C)[C@H]1O is less than 0.06 µg/mL?
Satisfied

Is it true that MIC reported for CCCO[C@@]1(C)C[C@@H](C)C(=O)[C@H](C)[C@@H](O)[C@](C)(O)[C@@H](CC)OC(=O)[C@H](C)[C@@H](O[C@H]2C[C@@](C)(OC)[C@@H](O)[C@H](C)O2)[C@H](C)[C@H]1O[C@@H]1O[C@H](C)C[C@H](N(C)C)[C@H]1O is less than 0.06 µg/mL?
Satisfied

Is it true that MIC reported for CC[C@H]1OC(=O)[C@H](C)[C@@H](O[C@H]2C[C@@](C)(OC)[C@@H](O)[C@H](C)O2)[C@H](C)[C@@H](O[C@@H]2O[C@H](C)C[C@H](N(C)C)[C@H]2O)[C@@](C)(OCCNCc2ccccc2)C[C@@H](C)C(=O)[C@H](C)[C@@H](O)[C@]1(C)O is less than 0.06 µg/mL?
Not satisfied

Is it true that MIC reported for CC[C@H]1OC(=O)C(C)[C@@H](O[C@H]2C[C@@](C)(OC)[C@@H](O)[C@H](C)O2)[C@H](C)[C@@H](O[C@@H]2O[C@H](C)C[C@H](N(C)C)[C@H]2O)[C@@](C)(OC/C=N/Oc2ccccc2)C[C@@H](C)C(=O)[C@H](C)[C@@H](O)[C@]1(C)O (single isomer, unassigned) is less than 0.06 µg/mL?
Satisfied

Is it true that MIC reported for CC[C@H]1OC(=O)[C@H](C)[C@@H](O[C@H]2C[C@@](C)(OC)[C@@H](O)[C@H](C)O2)[C@H](C)[C@@H](O[C@@H]2O[C@H](C)C[C@H](N(C)C)[C@H]2O)[C@@](C)(OC/C=N/OC)C[C@@H](C)C(=O)[C@H](C)[C@@H](O)[C@]1(C)O is less than 0.06 µg/mL?
Not satisfied

Is it true that MIC reported for CC[C@H]1OC(=O)[C@H](C)[C@@H](O[C@H]2C[C@@](C)(OC)[C@@H](O)[C@H](C)O2)[C@H](C)[C@@H](O[C@@H]2O[C@H](C)C[C@H](N(C)C)[C@H]2O)[C@@](C)(OCC(O)CNCc2ccccc2)C[C@@H](C)C(=O)[C@H](C)[C@@H](O)[C@]1(C)O (stereo not given in full) is less than 0.06 µg/mL?
Not satisfied

Is it true that MIC reported for CC[C@H]1OC(=O)[C@H](C)[C@@H](O[C@H]2C[C@@](C)(OC)[C@@H](O)[C@H](C)O2)[C@H](C)[C@@H](O[C@@H]2O[C@H](C)C[C@H](N(C)C)[C@H]2O)[C@](C)(OC)C[C@@H](C)C(=O)[C@H](C)[C@@H](O)[C@]1(C)O is less than 0.06 µg/mL?
Satisfied

Is it true that MIC reported for CC[C@H]1OC(=O)[C@H](C)[C@@H](O[C@H]2C[C@@](C)(OC)[C@@H](O)[C@H](C)O2)[C@H](C)[C@@H](O[C@@H]2O[C@H](C)C[C@H](N(C)C)[C@H]2O)[C@](C)(O)C[C@@H](C)C(=O)[C@H](C)[C@@H](O)[C@]1(C)O is less than 0.06 µg/mL?
Satisfied

Is it true that MIC reported for CC[C@H]1OC(=O)[C@H](C)[C@@H](O[C@H]2C[C@@](C)(OC)[C@@H](O)[C@H](C)O2)[C@H](C)[C@@H](O[C@@H]2O[C@H](C)C[C@H](N(C)C)[C@H]2O)[C@@](C)(OCC2CO2)C[C@@H](C)C(=O)[C@H](C)[C@@H](O)[C@]1(C)O (stereo not given in full) is less than 0.06 µg/mL?
Not satisfied
